# MEASUREMENT NOTES: Thermal solid-state stability / phase transition on heating (hot-stage microscopy, DSC)
# Assay type: physicochemical
# MEASUREMENT CONTEXT: heating at ambient pressure; observed by hot-stage microscopy and as DSC peak
MEASURED PARAMETER: temperature of solid-solid phase transition upon heating (°C)

(A) CCC(=O)O[C@]1(C(=O)CCl)[C@@H](C)CC2[C@@H]3C[C@H](F)C4=CC(=O)C=C[C@]4(C)[C@@]3(F)[C@@H](O)C[C@@]21C (some centres unmarked) [Form III, halobetasol propionate Form III]
(B) CCC(=O)O[C@]1(C(=O)CCl)[C@@H](C)CC2[C@@H]3C[C@H](F)C4=CC(=O)C=C[C@]4(C)[C@@]3(F)[C@@H](O)C[C@@]21C (some centres unmarked) [Form I, halobetasol propionate Form I]
QUERY: Between these two entries, A and B , state which has the higher temperature of solid-solid phase transition upon heating. Your answer should be the label of the entry you select.
RESULT: A
